Category | rule: reported boiling point within range, see bottom (below 100 °C), middle (100 °C to below 200 °C), top (200 °C or more)

molecule	classification
CCC1CCc2ccccc21 (centres undefined)	top
CN=Cc1ccccc1	middle
CCCCCCc1ccc(O)cc1O	top
CC/C=C\CC=O	middle
CCC(Br)Br	middle
COC(CC(OC)OC)OC	middle
CCOO	bottom
C=CCCC(=C)C	bottom
ClC(Cl)[Si](Cl)(Cl)Cl	middle

====

molecule	unitOfMeasure	boiling point
CCN(N)c1ccccc1	°C	237
CC=C(Cl)C=O	°C	148
COc1ccc(C=O)cc1	°C	248
Cc1cc(C)c(C)c(C)c1C	°C	232
CC1CCC(C)(C(=O)O)C1(C)C (stereo unspecified)	°C	254
CC(C)CCC(C)(C)O	°C	154
CC(=O)CC(C)(C)C	°C	126
CCCCCC[Si](Cl)(Cl)Cl	°C	190
FC(F)C(F)(F)OCC(F)(F)F	°C	56.2
CCC1CCc2ccccc2C1 (stereo unspecified)	°C	235
C1CC2CCC1C2	°C	105
CCC(C)C(C)(C)C(C)C (stereo unspecified)	°C	165
CCCC/C=C/CCCC	°C	171
O=CNC1CCCCC1	°C	260
c1ccc(NC2CCCCC2)cc1	°C	279
NCCN	°C	117
CC(C)OC(=O)c1ccccc1O	°C	238
CCCCCCCCCCCCCCCCCC#N	°C	362
ClCc1ccccc1	°C	179
c1cnccn1	°C	115
c1cc2ccc3cccc4ccc(c1)c2c34	°C	404
